B1: glmS ribozyme (parent)
chain: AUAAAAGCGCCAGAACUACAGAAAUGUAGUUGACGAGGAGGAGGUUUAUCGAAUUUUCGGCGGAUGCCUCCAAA

# Variants of: B1
# TEST_PROTOCOL: self-cleavage kobs at 2500 uM GlcN6P; higher = faster cleavage; RNA array
# CONDITION_SUMMARY: with glucosamine-6-phosphate
Fewer inactive variants are shown than the library holds.
Below, each entry is listed alongside its reported self-cleavage kobs at 2500 uM GlcN6P.
READOUT_LABEL: self-cleavage kobs at 2500 uM GlcN6P

MUTATION_LABEL	READOUT_LABEL	ENDPOINT_RESULT
G9A A39C	self-cleavage kobs at 2500 uM GlcN6P	< 1e-05 s⁻¹
U31G G32U G40A A48C	self-cleavage kobs at 2500 uM GlcN6P	< 1e-05 s⁻¹
U30C G37C G38C	self-cleavage kobs at 2500 uM GlcN6P	< 1e-05 s⁻¹
A33C C34A G62U C71U	self-cleavage kobs at 2500 uM GlcN6P	< 1e-05 s⁻¹
G38U A64U	self-cleavage kobs at 2500 uM GlcN6P	< 1e-05 s⁻¹
C34A U69A	self-cleavage kobs at 2500 uM GlcN6P	< 1e-05 s⁻¹
G9U G29U U31A U46A	self-cleavage kobs at 2500 uM GlcN6P	< 1e-05 s⁻¹
A14G A33G G41U A48C U69G	self-cleavage kobs at 2500 uM GlcN6P	< 1e-05 s⁻¹
C34A A42U	self-cleavage kobs at 2500 uM GlcN6P	< 1e-05 s⁻¹
C11U A42U U55G G63U C68U	self-cleavage kobs at 2500 uM GlcN6P	< 1e-05 s⁻¹
C34G G62A	self-cleavage kobs at 2500 uM GlcN6P	< 1e-05 s⁻¹
A53G U69A	self-cleavage kobs at 2500 uM GlcN6P	0.000305 s⁻¹
G40C A53U C70U	self-cleavage kobs at 2500 uM GlcN6P	0.000268 s⁻¹
A6G G9A	self-cleavage kobs at 2500 uM GlcN6P	< 1e-05 s⁻¹
A14G G41U	self-cleavage kobs at 2500 uM GlcN6P	0.00232 s⁻¹
A15U C50U U54C G59C	self-cleavage kobs at 2500 uM GlcN6P	< 1e-05 s⁻¹
G43U G44A A48G C58A U69A C71G	self-cleavage kobs at 2500 uM GlcN6P	< 1e-05 s⁻¹
A14G U30A C50A	self-cleavage kobs at 2500 uM GlcN6P	8.06e-05 s⁻¹
U47C C67G	self-cleavage kobs at 2500 uM GlcN6P	0.000239 s⁻¹
G9U G41C U47G	self-cleavage kobs at 2500 uM GlcN6P	< 1e-05 s⁻¹
G32C G37A A42C A53C	self-cleavage kobs at 2500 uM GlcN6P	< 1e-05 s⁻¹
U55A G59A	self-cleavage kobs at 2500 uM GlcN6P	5.76e-05 s⁻¹
G41A A48U C68A	self-cleavage kobs at 2500 uM GlcN6P	< 1e-05 s⁻¹
A15U G40C	self-cleavage kobs at 2500 uM GlcN6P	0.000162 s⁻¹
A33C A48C	self-cleavage kobs at 2500 uM GlcN6P	< 1e-05 s⁻¹
C10U A52C U57G	self-cleavage kobs at 2500 uM GlcN6P	< 1e-05 s⁻¹
U55G G66C C70U	self-cleavage kobs at 2500 uM GlcN6P	0.000343 s⁻¹
G29U G32U	self-cleavage kobs at 2500 uM GlcN6P	0.000243 s⁻¹
A39C A42C	self-cleavage kobs at 2500 uM GlcN6P	4.41e-05 s⁻¹
A6G C61U	self-cleavage kobs at 2500 uM GlcN6P	< 1e-05 s⁻¹

Reference source for all entries: the supplement of paper PMC7125110
